From: patent US4863963A

# system-name: 5α-reductase
# test-details: Inhibitory activity on 5α-reductase in vitro (conversion of [4-C^14]-testosterone to dihydrotestosterone)
# applied-conditions: male rat prostate enzyme, 60 mins at 37° C., pH 7.4; compounds of the present invention
Checkbox rule: IC50 lower than 1 µM = 1; IC50 not lower than 1 µM = 0.

QUERY: Is the reported IC50 for CCCCCOc1c(OC)cc(/C(C)=C/C(=O)Nc2ccccc2OCCCC(=O)O)cc1OC [Example 1-1] strictly below 1 µM?
RESULT: 0

QUERY: Is the reported IC50 for CCCc1ccc(/C(C)=C/C(=O)Nc2ccccc2OCCCC(=O)O)cc1 [Example 1-12] strictly below 1 µM?
RESULT: 1

QUERY: Is the reported IC50 for CCCCCOc1c(C)cc(/C(C)=C/C(=O)Nc2ccccc2OCCCC(=O)O)cc1C [Example 1-3] strictly below 1 µM?
RESULT: 0

QUERY: Is the reported IC50 for CCCCCOc1cc(/C=C(\C)C(=O)Nc2ccccc2OCCCC(=O)O)cc(OCCCCC)c1OCCCCC [Example 1-16] strictly below 1 µM?
RESULT: 1

QUERY: Is the reported IC50 for CCCCOc1ccc(/C(C)=C/C(=O)Nc2ccccc2OCCCC(=O)O)cc1 [Example 1-13] strictly below 1 µM?
RESULT: 1

QUERY: Is the reported IC50 for CCCOc1cc(/C(C)=C/C(=O)Nc2ccccc2OCCCC(=O)O)cc(OCCC)c1OCCC [Example 1-7] strictly below 1 µM?
RESULT: 0

QUERY: Is the reported IC50 for CCCCCOc1ccc(/C(C)=C/C(=O)Nc2ccccc2OCCCC(=O)O)c(Cl)c1Cl [Example 1-5] strictly below 1 µM?
RESULT: 0

QUERY: Is the reported IC50 for CCOc1cc(/C(C)=C/C(=O)Nc2ccccc2OCCCC(=O)O)cc(OCC)c1OCC [Example 1-9] strictly below 1 µM?
RESULT: 0

QUERY: Is the reported IC50 for CCCCCOc1c(Cl)cc(/C(C)=C/C(=O)Nc2ccccc2OCCCC(=O)O)cc1Cl [Example 1] strictly below 1 µM?
RESULT: 1

QUERY: Is the reported IC50 for CCCCCOc1cc(/C(C)=C/C(=O)Nc2ccccc2OCCCC(=O)O)c([N+](=O)[O-])cc1OCCCCC [Example 1-15] strictly below 1 µM?
RESULT: 0

QUERY: Is the reported IC50 for CCCCc1ccc(/C(C)=C/C(=O)Nc2ccccc2OCCCC(=O)O)cc1 [Example 1-11] strictly below 1 µM?
RESULT: 1

QUERY: Is the reported IC50 for CCC(C)c1ccc(/C(C)=C/C(=O)Nc2ccccc2OCCCC(=O)O)cc1 (centres unmarked) [Example 1-14] strictly below 1 µM?
RESULT: 1

QUERY: Is the reported IC50 for CCCCCOc1cc(/C(C)=C/C(=O)Nc2ccccc2OCCCC(=O)O)cc(OCCCCC)c1OCCCCC [Example 1-2] strictly below 1 µM?
RESULT: 0

QUERY: Is the reported IC50 for C/C(=C\C(=O)Nc1ccccc1OCCCC(=O)O)c1ccc(CC(C)C)cc1 [Example 1-10] strictly below 1 µM?
RESULT: 1

QUERY: Is the reported IC50 for CCCCOc1c(Cl)cc(/C(C)=C/C(=O)Nc2ccccc2OCCCC(=O)O)cc1Cl [Example 1-6] strictly below 1 µM?
RESULT: 0

QUERY: Is the reported IC50 for CCCCOc1cc(/C(C)=C/C(=O)Nc2ccccc2OCCCC(=O)O)cc(OCCCC)c1OCCCC [Example 1-8] strictly below 1 µM?
RESULT: 0
